assay-name: growth inhibitors of tim10-1 mutant yeast, primary screen, luminescence, uHTS (AID 463190);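 note: mutant grown at 25 °C; 0% = DMSO wells with yeast and 100% = wells holding no yeast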
test-parameters: S. cerevisiae tim10-1 ts strain growth, BacTiter-Glo, 24 h; at 20 µM; hits give high values
In all, about 330,000 compounds went through this assay and about 7,300 (2.2%) were called active. This is one part of a sample in which actives are shown more often than they occur.
endpoint-name: inhibition (%)
Answers are plain numbers, in %.

molecule: Cc1cccc(NC(=S)N2CCC(c3nc4ccccc4s3)CC2)c1
inhibition / %: 47
--
molecule: O=C1CCc2cc(S(=O)(=O)Nc3ccc(C(F)(F)F)cc3)cc3c2N1CC3
inhibition / %: 4.21
--
molecule: CCCCCCCC(=O)NC(Nc1ccccc1OC)C(Cl)(Cl)Cl (stereo not drawn)
inhibition / %: -1.41
--
molecule: Cc1ccc(CC(=O)Nc2ccc(S(=O)(=O)N3CCOCC3)cc2)cc1C
inhibition / %: 19
--
molecule: O=C1Nc2ccc(Br)cc2/C1=N/N=C/C1=C(N2CCOCC2)C(=C\c2ccccc2)/CC1
inhibition / %: 45.5

Give inhibition for each listed item.
1. COCCNc1nc(-n2nc(C)cc2C)nc2sc3c(c12)CCCC3
2. CNS(=O)(=O)c1cccc(C(=O)OCCCC(=O)c2ccccc2)c1

[30.3, 3.9]

Give inhibition for each listed item.
1. Cc1cc(C)n(-c2nc(SCC(=O)N3CCCC3)c3c4c(sc3n2)CCCC4)n1
2. CCOC(=O)N1CCC(N2Cc3cccc(C(=O)Nc4ccc(S(=O)(=O)N(CC)CC)cc4)c3C2=O)CC1
3. O=C(NCc1ccccc1Cl)C1CCC(CNc2c(N3CCCCC3)c(=O)c2=O)CC1 (stereo not drawn)
4. CCOC(=O)N1CCC(N2Cc3cccc(C(=O)Nc4c(C)cccc4CC)c3C2=O)CC1
5. Cc1ccc(NC(=O)NC(=O)N(C2CCCCC2)S(=O)(=O)c2ccccc2)cc1

1. 52.2
2. 17.7
3. -8.66
4. 51
5. 13.6

Give inhibition for each listed item.
1. CCCCn1c(=S)[nH]c2ccccc2c1=O
2. CCN(CC)C(=O)CSc1nnc(C2CCCCC2)o1
3. Cc1[nH]c2ccccc2c1C(=O)C(C)Sc1nnc(C2CC2)o1 (stereo not drawn)
4. S=c1[nH]c2ccccc2c2ccccc12
5. S=c1ccc2ccccc2[nH]1
6. COc1ccc2c(c1)cc1n2CCN=C1NN
7. CC(c1ccco1)N(C(=O)Nc1ccccc1)C1CCCCC1 (stereo not drawn)
8. CCCc1nn2c(=O)cc(CSCC(=O)Nc3cccc(C)c3)nc2s1

[30.4, 2.18, -11.7, 40.1, 8.36, 43.7, 48.1, 5.18]

Give inhibition for each listed item.
1. CCCCNC(=S)N/N=C1\CCCCc2ccccc21
2. Nc1cc(C(F)(F)F)ccc1N1CCOCC1
3. Cc1ccc(NC(=S)N/N=C2/CCCc3c(C)cc(C)cc32)cc1

1: 47.7; 2: 11.6; 3: 9.99
